Catalogue of molecules with associated TGI
- Tested on: HCC-2998 colon
- method: NCI tumour cell line growth inhibition, 48 h

molecule smiles | TGI
COC(=O)c1ccc2c(c1)C(=O)c1c-2n(C)c(=O)c2cc(OC)c(OC)cc12 | > 50 µM
S=C(N/N=C/c1ccccn1)Nc1ccc(Cl)cc1 | > 57.7 µM
NNC1=N/C(=C\c2ccco2)C(=O)N1 | > 100 µM

---

- Test system: K-562 leukemia
- method: NCI tumour cell line growth inhibition, 48 h

compound | assay target | TGI
Fc1ccc(-c2nn3c(-c4cc(C(F)(F)F)cc(C(F)(F)F)c4)nnc3s2)cc1 | K-562 leukemia | > 50 µM
CCN(Cc1ccccc1Cl)c1ccc(CO)c(Cl)c1 | K-562 leukemia | 14.6 µM
CC(=O)O[C@H]1C=CC(=O)C(C)CC1C (stereo partly drawn) | K-562 leukemia | > 100 µM
COC(=O)c1c2c(cc3c1CC1(C3)Cc3cc4c(c(C(C)=O)c3C1)CCC4)C=CC2 (stereo not drawn) | K-562 leukemia | > 31.6 µM
O=C(NNC(=S)Nc1ccc(Br)cc1)c1cc(-c2ccccc2)nc2ccccc12 | K-562 leukemia | 89.8 µM
O=C1CCCC(=O)N1n1c(Cc2ccccc2)n[nH]c1=O | K-562 leukemia | > 100 µM
CCOC(=O)C1=C(C)N(Cc2ccccc2)C(=O)C1CC#N (stereo not drawn) | K-562 leukemia | > 100 µM
Cc1c(-c2ccccc2)c(C#N)c2nnn(C3CCCCC3)c(=O)n12 | K-562 leukemia | > 100 µM
COc1cc(OC)c2c(=O)c(OC)c(-c3ccc4c(c3)OCO4)oc2c1OC | K-562 leukemia | > 100 µM
COC(=O)C1=CC2CC1C(S(=O)(=O)c1ccccc1)C2S(=O)(=O)c1ccccc1 (stereo not drawn) | K-562 leukemia | 32.3 µM
Nc1c(C(=O)N/N=C/c2ccc(Cl)cc2)sc(=S)n1-c1ccccc1 | K-562 leukemia | > 100 µM
Cc1ccc(N=C2S/C(=C3/CCC=C3N3CCOCC3)N(c3ccc(Cl)cc3)C2=Nc2ccc(C)cc2)cc1 | K-562 leukemia | > 100 µM
c1ccc(CN2CCC3(CC2)SSC2(CCN(Cc4ccccc4)CC2)SS3)cc1 | K-562 leukemia | > 100 µM
COC1=CC(=O)c2c(cc(COP(=O)(OCC3OC(n4cc(F)c(=O)[nH]c4=O)CC3O)N(C)CCCCCl)n2C)C1=O (stereo not drawn) | K-562 leukemia | > 95.9 µM
Cc1cc2oc(-c3ccccc3)c(C)c(=O)c2c2c1OC(C)(C)S2 | K-562 leukemia | > 100 µM
CSc1nc2c(nc(N)n2C2OC(COC(C)=O)C(OC(C)=O)C(OC(C)=O)C2OC(C)=O)c(=O)n1C (stereo not drawn) | K-562 leukemia | > 100 µM
CCOC(=O)CSc1nnc(CSc2nc(-c3ccccc3)c(-c3ccccc3)[nH]2)n1-c1ccccc1 | K-562 leukemia | > 100 µM
COc1cccc(C2ON=C(c3ccccc3)N2C23CC4CC(CC(C4)C2)C3)c1 (stereo not drawn) | K-562 leukemia | > 10 µM
CC1SC2(CCC(c3ccccc3)CC2)N(NC(=O)c2[nH]c3ccc(F)cc3c2-c2ccccc2)C1=O (stereo not drawn) | K-562 leukemia | 6.1 µM
Cc1ccc(/C=C/C(=N/N=C(N)N)c2ccccc2)cc1 | K-562 leukemia | 10.4 µM
COc1cc2oc(-c3ccc(O)cc3O)c(CC=C(C)C)c(=O)c2c(O)c1/C=C/C(C)C | K-562 leukemia | 4.64 µM
CN1C[C@H]2[C@@H](C1=O)[C@H](c1ccccc1)ON2C | K-562 leukemia | > 100 µM
O=c1c(C2=NCCC2)c(-c2ccc[nH]2)[nH]n1-c1ccccc1 | K-562 leukemia | > 100 µM
Nc1ccccc1NC(=O)c1ccc(CN2CCC/C(=C\c3ccccn3)C2=O)cc1 | K-562 leukemia | > 100 µM
O=C1C(Cl)C2(CC(/C=C/c3ccccc3O)=NN2c2cccc(S(=O)(=O)O)c2)N1c1nc2ccccc2s1 (stereo not drawn) | K-562 leukemia | 86.1 µM
C[C@]12CC[C@H]3[C@@H](CCC4=CC(=O)CC[C@@]43C)[C@@H]1CC[C@@H]2C(=O)COS(=O)(=O)c1ccc(Br)cc1 | K-562 leukemia | 31.7 µM
C/C=C(/CCC1NCCC2c3ccccc3NC12)[Si](C)(C)C (stereo not drawn) | K-562 leukemia | 7.7 µM
CCOC(=O)C(=[N+]=[N-])C(=O)CN1C(=O)C2CC(C)=C(C)CC2C1O (stereo not drawn) | K-562 leukemia | > 100 µM
NS(=O)(=O)c1ccc(NCc2cnc3ccccc3n2)cc1 | K-562 leukemia | > 100 µM
COC(=O)c1ccc2c(c1)C(=O)c1c-2n(C)c(=O)c2cc(OC)c(OC)cc12 | K-562 leukemia | > 50 µM
C=C1CC[C@@H]2[C@](C)(COC(C)=O)[C@H](OC(C)=O)CC[C@@]2(C)[C@@H]1CC(Nc1ccc(S(=O)(=O)Nc2cc(C)on2)cc1)C1=CCOC1=O (stereo partly drawn) | K-562 leukemia | 8.42 µM
Cc1nc2c(cc1C(=O)N/N=C/c1ccc([N+](=O)[O-])cc1)c(=O)n(C)c(=O)n2C | K-562 leukemia | > 100 µM
Cc1ccc(Nc2[nH]c(=O)[nH]c(=O)c2C)cc1Cl | K-562 leukemia | > 100 µM
